Molecular target: T1, NHERF1 PDZ1 domain (1-140) (human, UniProt O14745 1-140)
T1 sequence (looked up): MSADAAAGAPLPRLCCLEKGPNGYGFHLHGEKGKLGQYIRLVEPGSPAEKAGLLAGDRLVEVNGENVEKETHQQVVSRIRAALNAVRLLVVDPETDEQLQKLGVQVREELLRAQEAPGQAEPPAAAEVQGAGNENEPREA
Assay: fluorescence polarisation
Ends that are not written are not given here. * marks the point of attachment. FITC = O=C1OC2(c3ccc(O)cc3Oc3cc(O)ccc32)c2ccc(NC(=S)*)cc21
MEASURE NAME: Kd
Express the reported value numerically, then name its unit.

Consider {FITC}-LQEEWETVM [FITC-labeled carboxy-terminal PTHR 9-residue peptide] . Its measured Kd is 400 nM

Values compiled from paper PMC5479578.
